# run-description: chemical genetic growth profiling, strain panel (AID 1159580);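 further: tested at 20 µM; growth read once vehicle control cultures reached saturation at 30 °C; 1 = growth at the plate median or of vehicle wells; lower values mean less growth of the strain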
# test-context: S. cerevisiae deletion strains, growth OD, locus YGR229C, strain SMI1, stronger effect = lower value
Hit rate of the full screen: of about 5,500 compounds, about 2,000 (36%) were called active. Another 18% or so got no clear call; they are omitted. Some of the results follow.
measurement-label: normalized growth
# output: bare number, no unit

q: Answer with the recorded normalized growth for the compound listed here: Cc1cc(-c2ccccc2)nnc1NCCN1CCOCC1
a: 1.03

q: Answer with the recorded normalized growth for the compound listed here: C=CC(N)CCC(=O)O (centres undefined)
a: 1.03

q: Answer with the recorded normalized growth for the compound listed here: CCCNC1CCc2nc(N)sc2C1 (centres undefined)
a: 1.03

q: Answer with the recorded normalized growth for the compound listed here: C=C1C(=O)O[C@@H]2C3O[C@]3(C)CC/C=C(\C)CC[C@@H]12 (some centres undefined)
a: 0.396
